B1: LINE1-full (parent)
chain: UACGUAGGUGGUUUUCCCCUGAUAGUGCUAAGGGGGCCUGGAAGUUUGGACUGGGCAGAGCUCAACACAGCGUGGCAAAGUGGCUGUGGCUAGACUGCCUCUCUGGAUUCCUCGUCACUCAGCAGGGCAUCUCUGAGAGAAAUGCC

# Variants of: B1
# protocol-summary: self-cleavage, relative activity (ratio to wild type); higher = more cleavage; in vitro, sequencing; the parent is a self-cleaving ribozyme
Outcome label depends on self-cleavage relative to 1: at/above gives satisfied, below gives not satisfied.

Worked cases, answers included:
variant-spec: G74A A92U
cat: not satisfied

variant-spec: U91C C98A
cat: not satisfied

variant-spec: A30G C99U
cat: satisfied

variant-spec: C37U U52G
cat: not satisfied

variant-spec: G74U A140G
cat: satisfied

Could you please find out whether C19U G54A has self-cleavage that meets 1 or exceeds it?
not satisfied

For this variant, is measured self-cleavage 1 or higher? A65G A129G
not satisfied

Check if self-cleavage >= 1 (inclusive). Item: A43G U130A
satisfied

Evaluate A50C A142G : self-cleavage at minimum 1?
satisfied

Does the variant A22C A50G have recorded self-cleavage that is 1 or more?
satisfied

Please indicate if the recorded self-cleavage for U15A C19U meets or exceeds 1.
not satisfied

Reported self-cleavage reaches at least 1 for C56G A129C ?
not satisfied

I'd appreciate it if you could say whether C95U A117U has self-cleavage at least equal to 1.
not satisfied

Given the entry A22G G53U , answer whether its self-cleavage meets or surpasses 1.
satisfied

Given the entry A67G C76U , answer whether its self-cleavage meets or surpasses 1.
not satisfied

# check: self-cleavage of U73C A117U is greater than or equal to 1
satisfied

Quick check, self-cleavage >= 1? C71U U87C
not satisfied
